# TESTED_TARGET: T1, human SIRPβ1v2 (huSIRPβ1v2) (human, UniProt Q5TFQ8 30-371)
# T1 construct: Coated on the plate in ELISA; Only the Ensembl protein number is printed; also called huSIRPß1v2
# T1 sequence (Q5TFQ8 30-371 limits assumed): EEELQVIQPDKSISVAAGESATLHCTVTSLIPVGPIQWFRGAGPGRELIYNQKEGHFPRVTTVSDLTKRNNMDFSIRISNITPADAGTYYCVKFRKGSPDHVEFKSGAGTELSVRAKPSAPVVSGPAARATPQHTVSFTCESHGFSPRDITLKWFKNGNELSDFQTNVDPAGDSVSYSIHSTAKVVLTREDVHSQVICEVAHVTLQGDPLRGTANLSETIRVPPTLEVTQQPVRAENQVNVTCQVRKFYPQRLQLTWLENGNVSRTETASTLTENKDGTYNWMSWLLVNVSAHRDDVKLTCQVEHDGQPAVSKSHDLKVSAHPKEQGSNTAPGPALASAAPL
# ASSAY_PROCEDURE: ELISA, antigen coated
MEASUREMENT_TYPE: EC50 (µg/mL)
Please give a number only; it is taken to be in µg/mL.

Incoming: Request the reported EC50 associated with anti-SIRPα antibody 5 (antibody, human IgG1, kappa, L234A L235A, V domains shown, Rabbit variable regions on human IgG1 LALA / kappa) VH: QSVEESGGRLVTPGTPLTLTCTVSGFSLSSYVMGWFRQAAGKGLEYIGYINADGSPYYATWVNGRFTISKTPTTMDLKINSPTTEDTATYFCARVGPLGVDYFNIWGPGTLVTVSL VL: DIVMTQTPASVEAAVGGTVTIKCQASQSINRYLTWYQQKPGQRPKLLIYYASTLESGVPSRFEGSGSGTDYTLTISDLESADAATYYCQSYYYISRTYAFGGGTEVVVKR
Outgoing: 0.11

Incoming: What about anti-SIRPα antibody 4 (antibody, human IgG1, kappa, L234A L235A, V domains shown, Chimeric: rabbit variable regions on human IgG1 LALA / kappa; also called chimeric antibody 4) VH: QSVEESGGRLGTPGTPLTLTCTVSGFSLSSYVMGWFRQAPGKGLEYIGIISSSGSPYYASWVNGRFTISKTSTTMDLKMNSPTTEDTATYFCARVGPLGVDYFNIWGPGTLVTVSL VL: DIVMTQTPSSVEAAVGGTVTIKCQAGQSINSYLAWYQQKPGQRPKLLIYYASTLESGVPSRFKGSGSGTDYTLTISDLESADAATYYCQSWHYISRSYAFGGGTEVVVKR ?
Outgoing: 0.092
